# procedure details: BI 187004 concentration in subcutaneous adipose tissue biopsies (LC–MS/MS)
# Assay type: in vivo, human
# condition label: male, human, subcutaneous adipose tissue, oral; 240 mg single dose; adipose tissue; 24 h; read-out: AT C24 gMean (range)
test readout: concentration at 24 h (nM)
Kindly provide the numeric value in nM only, without the unit symbol.

# input # get_value(readout='concentration at 24 h', item= N#Cc1ccc2c(c1)[C@H]1CCCN(C(=O)c3ccc4[nH]cnc4c3)[C@H]1C2 )
# output 212

* * *

# procedure details: Plasma pharmacokinetics of BI 187004 after single oral doses (LC–MS/MS)
# condition label: male, human, plasma, po, 20 mg, BI 187004 plasma concentrations, 20 mg single oral, planned time 2.5 h, Median
test readout: concentration at 2.5 h (nM)
Response body: numeric value in nM, unit text excluded.

# input Fill in the blank: the reported concentration at 2.5 h of N#Cc1ccc2c(c1)[C@H]1CCCN(C(=O)c3ccc4[nH]cnc4c3)[C@H]1C2 is ____.
# output 866
